SYSTEM: human ether-à-go-go-related gene (hERG) potassium channel (human, UniProt Q12809);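 further: peak tail current of the secondary pulse compared with the same well before compound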
Sequence (Q12809 whole entry, looked up): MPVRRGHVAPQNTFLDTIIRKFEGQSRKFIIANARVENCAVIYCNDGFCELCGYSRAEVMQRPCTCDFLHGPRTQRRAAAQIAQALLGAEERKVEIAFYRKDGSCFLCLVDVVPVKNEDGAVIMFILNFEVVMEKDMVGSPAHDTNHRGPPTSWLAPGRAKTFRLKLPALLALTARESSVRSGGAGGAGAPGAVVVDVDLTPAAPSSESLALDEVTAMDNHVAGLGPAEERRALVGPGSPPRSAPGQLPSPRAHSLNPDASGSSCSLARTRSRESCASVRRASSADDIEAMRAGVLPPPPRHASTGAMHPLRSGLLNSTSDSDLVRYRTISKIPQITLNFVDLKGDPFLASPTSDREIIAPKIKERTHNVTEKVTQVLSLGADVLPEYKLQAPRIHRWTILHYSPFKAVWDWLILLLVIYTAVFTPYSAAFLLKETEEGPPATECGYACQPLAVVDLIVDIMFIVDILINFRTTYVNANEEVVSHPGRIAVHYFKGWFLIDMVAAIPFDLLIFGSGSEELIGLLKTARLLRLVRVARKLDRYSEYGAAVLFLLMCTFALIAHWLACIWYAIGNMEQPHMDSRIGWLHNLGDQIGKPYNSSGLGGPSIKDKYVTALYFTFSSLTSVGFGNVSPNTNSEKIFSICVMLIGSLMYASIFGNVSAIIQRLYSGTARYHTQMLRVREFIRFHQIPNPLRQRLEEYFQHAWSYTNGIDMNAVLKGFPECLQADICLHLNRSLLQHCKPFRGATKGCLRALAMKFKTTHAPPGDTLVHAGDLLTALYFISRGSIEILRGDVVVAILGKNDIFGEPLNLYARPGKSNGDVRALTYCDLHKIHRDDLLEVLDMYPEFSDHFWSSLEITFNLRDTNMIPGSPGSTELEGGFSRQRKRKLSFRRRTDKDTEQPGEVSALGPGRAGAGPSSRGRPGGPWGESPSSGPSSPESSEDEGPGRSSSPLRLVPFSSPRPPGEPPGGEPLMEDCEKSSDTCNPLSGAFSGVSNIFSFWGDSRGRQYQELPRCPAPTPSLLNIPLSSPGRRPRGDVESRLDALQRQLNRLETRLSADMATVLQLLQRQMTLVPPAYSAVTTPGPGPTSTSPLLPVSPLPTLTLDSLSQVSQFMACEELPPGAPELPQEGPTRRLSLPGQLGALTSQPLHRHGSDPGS
EXPERIMENTAL DETAILS: primary screen, population patch clamp on CHO cells stably expressing hERG; higher = less effect of the substance
The whole screen tested about 310,000 compounds, of which about 14,000 (4.5%) showed an effect of 50% or more. Effects have a minus sign here. The sample as a whole holds a higher share of strong results than the screen did.
Collected hERG current change (%, negative = inhibition) at 10uM values appear next to each entry.
EXPERIMENTAL READOUT: hERG current change (%, negative = inhibition) at 10uM (%)

INSERT INTO measurements (structure_notation, readout_value) VALUES
  ('Cc1cc(C(=O)N/N=C/c2ccc(Cl)c([N+](=O)[O-])c2)c(C)n1-c1ccc(F)cc1', -2.41),
  ('O=[N+]([O-])c1ccc(N2CCC(=NOCc3ccc(Cl)cc3)CC2)cc1', -54.5),
  ('Cc1cc2ccccc2n1CCNC(=O)C(C)(C)C', 11.7),
  ('c1ccc(N2CCN(CC3CCCCC3)CC2)cc1', 9.61),
  ('CCC(=O)NCCn1c(C)cc2ccccc21', -0.267),
  ('O=C(Cn1ncc2c(=O)oc3ccccc3c21)NCCc1ccsc1', -54.2),
  ('CCN(CC)CCCNc1nc2ccccc2c2nc(-c3ccncc3)nn12', -56.6),
  ('O=C(Cn1ncc2c(=O)oc3ccccc3c21)N1CCN(c2ccccn2)CC1', -41),
  ('O=[N+]([O-])c1ccc(N2CCN(Cc3cccc([N+](=O)[O-])c3)CC2)cc1', -71.8),
  ('O=C(Cn1ncc2c(=O)oc3ccccc3c21)N1CCC(N2CCCCC2)CC1', -5),
  ('FC(F)(F)c1cnc(N2CCC(=NOCc3ccc(Cl)cc3)CC2)c(Cl)c1', 29.6),
  ('OCCCNc1nc(-c2ccc(Cl)cc2)nc2ccccc12', -63.1),
  ('CC(=O)c1ccc(N2CCN(CC3CCCCC3)CC2)cc1', -24),
  ('CCN(CC)CCCNc1nc2cc(OC)c(OC)cc2c2nc(-c3cccnc3)nn12', -2.29),
  ('Cc1cccc(C)c1NC(=S)N1CCCN(C)CC1', 15.2),
  ('Cc1ccc2oc(=O)c3cc(C(=O)N4CCN(C(=O)c5ccco5)CC4)sc3c2c1', -21.5),
  ('O=C(c1ccco1)N1CCN(C(=O)c2cc3c(s2)-c2ccccc2OC3)CC1', -63.9),
  ('Cc1ccc2oc(=O)c3cnn(CC(=O)NCCc4ccsc4)c3c2c1', -12.2),
  ('CCc1noc(C)c1C(=O)Nc1cc(C(F)(F)F)ccc1-n1cncn1', -21.3),
  ('CCN(CC)CCCNc1nc2cc(OC)c(OC)cc2c2nc(-c3ccccc3)nn12', -7.77),
  ('Cc1ccc(-c2nc(NCCCO)c3ccccc3n2)cc1', -41.2);
